# Target Or Test System: D(3) dopamine receptor (Homo sapiens)
# Sequence (P35462 whole entry): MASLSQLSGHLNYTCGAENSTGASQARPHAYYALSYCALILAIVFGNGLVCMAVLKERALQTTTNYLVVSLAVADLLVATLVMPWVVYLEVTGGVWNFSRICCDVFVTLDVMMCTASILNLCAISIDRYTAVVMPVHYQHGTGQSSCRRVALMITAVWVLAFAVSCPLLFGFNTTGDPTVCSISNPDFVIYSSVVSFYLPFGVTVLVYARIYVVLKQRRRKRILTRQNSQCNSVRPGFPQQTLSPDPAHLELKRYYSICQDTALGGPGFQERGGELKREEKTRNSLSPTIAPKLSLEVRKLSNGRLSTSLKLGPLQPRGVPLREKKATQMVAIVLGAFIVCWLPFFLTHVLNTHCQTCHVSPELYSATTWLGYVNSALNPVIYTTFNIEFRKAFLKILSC
# Procedure Summary: Antagonist activity at human dopamine D3 expressed in CHO cells assessed as inhibition of quinelorane-induced [35S]GTPgammaS binding
# Type: functional, cell-based
pKi: −log10 of the molar value.
Label t for high-side pKi (at or above 8) and f for low-side pKi (below it).

input: Does the compound Cc1ncoc1-c1nnc(SCCCN[C@@H]2CC3C[C@]3(c3ccc(C(F)(F)F)cc3F)C2)n1C (some centres not stated) have recorded pKi that is 8 or more?
output: f

input: Does the compound Cc1ncoc1-c1nnc(SCCCN2CCC3(CCc4cc(F)ccc43)C2)n1C (configuration not stated) have recorded pKi that is 8 or more?
output: f

input: Does the compound Cc1nc(C)c(-c2nnc(SCCCN3CCC4(CCc5ccc(F)cc54)C3)n2C)s1 (configuration not stated) have recorded pKi that is 8 or more?
output: f

input: Does the compound Cc1ncoc1-c1nnc(SCCCN2CCC3(CCc4cc(Br)ccc43)C2)n1C (configuration not stated) have recorded pKi that is 8 or more?
output: t

input: Does the compound Cc1ncoc1-c1nnc(SCCCN[C@@H]2CC[C@]3(c4ccc(C(F)(F)F)cc4)CC23)n1C (stereo in doubt; 24) have recorded pKi that is 8 or more?
output: t

input: Does the compound Cc1ncoc1-c1nnc(SCCCN2CCC3CC3(c3ccccc3)C2)n1C (configuration not stated) have recorded pKi that is 8 or more?
output: f

input: Does the compound Cc1ncoc1-c1nnc(SCCCN[C@@H]2CC[C@]3(c4ccc(C(F)(F)F)cc4)CC23)n1C (stereo in doubt; 22) have recorded pKi that is 8 or more?
output: f

input: Does the compound COc1ccc2c(c1)CCCC21CCN(CCCSc2nnc(-c3ocnc3C)n2C)C1 (configuration not stated) have recorded pKi that is 8 or more?
output: f

input: Does the compound COc1cccc2c1CCCC21CCN(CCCSc2nnc(-c3ocnc3C)n2C)C1 (configuration not stated) have recorded pKi that is 8 or more?
output: f

input: Does the compound Cc1ncoc1-c1nnc(SCCCN2CCC3(c4ccccc4)CC3C2)n1C (configuration not stated) have recorded pKi that is 8 or more?
output: f

input: Does the compound COc1ccc2c(c1)C1(CCC2)CCN(CCCSc2nnc(-c3ocnc3C)n2C)C1 (configuration not stated) have recorded pKi that is 8 or more?
output: f

input: Does the compound Cc1ncoc1-c1nnc(SCCCNC2CC[C@]3(c4ccc(C(F)(F)F)cc4)CC23)n1C (single isomer, unassigned) have recorded pKi that is 8 or more?
output: f

input: Does the compound Cc1ncoc1-c1nnc(SCCCNC2CC3CC3(c3ccccc3)C2)n1C (configuration not stated) have recorded pKi that is 8 or more?
output: f
